System: MV4-11 cells
Assay: Anticancer activity: Alamar Blue assay, 3-day proliferation
Format: cell-based
Conditions: Homo sapiens, AML cell line MV4-11, 72 h, read-out: MV4-11 EC50_μM
Can you tell me EC50 for the items I'm about to list?
Numbers only, in nM.

Solved entries (count: 2):
>>> test_result("Cc1sc2c(c1C)C(c1ccc(Cl)cc1)=NC(CC(N)=O)c1cc(=O)n(C)cc1-2 (racemic) [e]")
7
>>> test_result("CCNC(=O)CC1N=C(c2ccc(Cl)cc2)c2c(sc(C)c2C)-c2cn(C)c(=O)cc21 (racemic) [b]")
10

Asked: Please give the measured EC50 for this compound: Cc1sc2c(c1C)C(c1ccc(Cl)cc1)OC(CC(N)=O)c1cc(=O)n(C)cc1-2 (racemic) [ee]
Given back: 7

Attribution: patent US10689395B2
